Source of measurements: ChEMBL document CHEMBL5291721

# testTarget: Gamma-aminobutyric acid receptor subunit alpha-1 (Rattus norvegicus); also: assay procedure not described here
# Sequence (P62813 whole entry): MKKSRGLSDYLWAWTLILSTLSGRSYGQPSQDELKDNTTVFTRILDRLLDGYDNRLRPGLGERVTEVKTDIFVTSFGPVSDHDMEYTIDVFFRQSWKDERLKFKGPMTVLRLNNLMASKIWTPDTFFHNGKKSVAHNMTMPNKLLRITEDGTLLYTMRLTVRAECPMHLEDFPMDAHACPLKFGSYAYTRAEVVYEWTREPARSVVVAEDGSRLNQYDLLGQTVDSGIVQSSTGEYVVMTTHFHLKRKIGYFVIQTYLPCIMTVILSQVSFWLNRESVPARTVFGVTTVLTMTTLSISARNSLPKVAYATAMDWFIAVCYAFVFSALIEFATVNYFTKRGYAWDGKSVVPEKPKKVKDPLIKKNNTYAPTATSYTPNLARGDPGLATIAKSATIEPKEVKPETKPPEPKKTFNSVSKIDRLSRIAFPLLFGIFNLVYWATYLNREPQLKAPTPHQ
# Type: functional
measuredAttribute: AC50

Would you please look over these solved cases?
Prompt: Could you tell me which AC50 is on file for O=C(OCC(O)CO)c1ccccc1Nc1ccnc2cc(Cl)ccc12 (stereo not drawn) ?
Completion: 0.046 µM

Prompt: Could you tell me which AC50 is on file for CC(CC(c1ccccc1)c1ccccc1)NC(C)(C)C (stereo not drawn) ?
Completion: > 30 µM

***
Prompt: Could you tell me which AC50 is on file for COc1cccc(C2(O)CCCCC2CN(C)C)c1 (stereo not drawn) ?
Completion: > 10 µM

====

A collection of compounds and their measured AC50
# testTarget: Amine oxidase [flavin-containing] A (Homo sapiens, UniProt P21397); also: assay procedure not described here
# Sequence (P21397 whole entry): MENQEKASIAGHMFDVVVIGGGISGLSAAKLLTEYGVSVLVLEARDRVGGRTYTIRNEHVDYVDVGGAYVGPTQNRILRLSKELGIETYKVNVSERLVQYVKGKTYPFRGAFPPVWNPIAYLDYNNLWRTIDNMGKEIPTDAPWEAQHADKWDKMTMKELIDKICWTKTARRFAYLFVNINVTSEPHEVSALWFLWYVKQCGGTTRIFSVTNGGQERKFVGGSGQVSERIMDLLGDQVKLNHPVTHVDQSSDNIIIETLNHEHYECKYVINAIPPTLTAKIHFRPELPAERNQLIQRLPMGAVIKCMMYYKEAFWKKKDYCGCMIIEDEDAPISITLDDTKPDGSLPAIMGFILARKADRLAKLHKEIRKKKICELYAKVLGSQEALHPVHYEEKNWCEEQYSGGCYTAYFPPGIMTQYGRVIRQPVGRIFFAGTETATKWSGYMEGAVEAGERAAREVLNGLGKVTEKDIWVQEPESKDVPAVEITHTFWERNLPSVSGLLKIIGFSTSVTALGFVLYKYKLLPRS
# Type: functional

Would you please look over these solved cases?
Prompt: Could you tell me which AC50 is on file for O=[N+]([O-])O[C@@H]1CO[C@H]2[C@@H]1OC[C@@H]2O [ISOSORBIDE MONONITRATE] ?
Completion: > 30 µM

Prompt: Could you tell me which AC50 is on file for Cc1cc(C)c(NC(=O)CN(CC(=O)O)CC(=O)O)c(C)c1Br ?
Completion: > 30 µM

Next compound, please.
Prompt: Could you tell me which AC50 is on file for CCN(CC)CCOC(=O)C(c1ccccc1)C1CCCCC1 (stereo not drawn) ?
Completion: > 30 µM
